Reported pKd by item:
# tgt: T1, Prostate specific antigen (PSA), purified from human seminal fluid (human, UniProt P07288 25-261)
# T1 construct: mature; Mostly captured on wells by MAb 5E4 (IFMA) or on the chip by MAb H117 (SPR); in solution in enzyme assays; also called free PSA; active PSA
# test_summary: SPR, PSA captured by MAb H117, 1 µM Zn2+, single fit, 3.4 µM peptide
pKd: −log10 of the molar value.

{"columns": ["binder", "pKd"],
 "data": [
  ["CVFTSDYAFC (other) [GST-A-1 (peptide A-1 expressed as glutathione S-transferase fusion protein)]", 5.59],
  ["CVFAHNYDYLVC (other) [GST-B-2 (peptide B-2 expressed as glutathione S-transferase fusion protein)]", 5.51]
]}
